System: NCI-H226 lung
PROTOCOL: NCI-60 one-dose screen, 48 h (100 = growth as untreated, 0 = no growth, -100 = all killed)
PROTOCOL CONDITIONS: 10 µM unless noted
Compounds without any hit were thinned out: in the full panel of roughly 83,000, 20% have a hit.
# growth per entry
Respond numerically; units are % and should not be typed.

Sample CN(C)CCCN=c1cc2c(=O)n(CCCN(C)C)c(=O)c3c(NCCCN(C)C)cc4c(O)n(CCCN(C)C)c(=O)c1c4c3-2 ; growth observed: -33.2

Sample Cc1onc(-c2ccccc2Cl)c1C(=O)N[C@@H]1C(=O)N2[C@@H]1SC(C)(C)[C@@H]2C(=O)O ; growth observed: 99.2

Sample O=C(Nc1ccc2c(c1)C(=O)c1ccccc1-2)c1ccccc1 ; growth observed: 97.6

Sample COc1ccc2cc(-c3nc4ccccc4[nH]3)c(=O)oc2c1 ; growth observed: 97.5

Sample CCc1nn2c(-c3ccc(Cl)cc3C)c(-c3cc(OC)c(OC)c(OC)c3)nc2s1 ; growth observed: 87

Sample Cc1ccc(NC(=O)c2sc3nc4c(cc3c2N)C(=O)CCC4)cc1 ; growth observed: 83.7

Sample N=C1c2nc3n(c2C(=O)c2nc4n(c21)CCCCC4)CCCCC3 ; growth observed: 98.3

Sample C[C@]12CCC(=O)C=C1CCC1C2[C@@H](O)C[C@@]2(C)C1CC[C@]2(O)C(=O)COC(=O)CCC(=O)O (some centres not stated) ; growth observed: 77.4

Sample CC(=O)O[C@H]1CC[C@@]2(C)C(=CC[C@@H]3[C@@H]2CC[C@]2(C)C(c4cccnc4)=CC[C@@H]32)C1 ; growth observed: 64.1

Sample O=C(/C=C(\Nc1ccccc1)c1ccccc1)c1cn(-c2ccc([N+](=O)[O-])cc2)nn1 ; growth observed: 95.3

Sample C=C1CCC2C(C)(COC(=O)CC)C(OC(=O)CC)CCC2(C)C1C/C=C1/C(=O)OCC1OC(=O)CC (configuration not stated) ; growth observed: -18.3

Sample CC1CN(C2CCCCC2)C(=O)NC1=O (configuration not stated) ; growth observed: 101

---

Tested on: OVCAR-4 ovarian
PROTOCOL: NCI-60 one-dose screen, 48 h
PROTOCOL CONDITIONS: 10 µM unless noted
This is part of a sample that, as a whole, favours compounds with a hit. Of some 83,000 tested, about 20% had one in any assay. The source made the active and inactive calls. How the source made its calls: active means growth percent below 10; inactive means the rest.
// allowed return values: active, inactive

[[record]]
molecule = "COc1ccc(-c2ccc(O)c(C(=O)/C=C/c3cc(OC)c(OC)c(OC)c3)c2)cc1"
label_class = "inactive"

[[record]]
molecule = "CC(=O)/C(=C/c1ccc(Cl)cc1)C(=O)c1ccccc1"
label_class = "inactive"

[[record]]
molecule = "Cc1ccc(S(=O)(=O)N2CCN(C(=O)CSc3nc4ccc(C)cc4[nH]3)CC2)cc1"
label_class = "inactive"

[[record]]
molecule = "CCn1cnc(C[C@H](NC(=O)[C@H](CCCCNC(=O)Nc2cc(C(F)(F)F)cc(C(F)(F)F)c2)NC(=O)Nc2cc(C(F)(F)F)cc(C(F)(F)F)c2)C(=O)OC)c1"
label_class = "active"

[[record]]
molecule = "C(#Cc1ccccc1C#Cc1ccccn1)c1ccc(OCCCCCCOc2ccc(C#Cc3ccccc3C#Cc3ccccn3)cc2)cc1"
label_class = "inactive"

[[record]]
molecule = "O=C(Nc1nc2c(C(F)(F)F)cccc2s1)c1cc(Cl)ccc1O"
label_class = "inactive"


Data request: Per the assay record, what outcome was assigned to Oc1ccc(/C=N/Nc2nc3ccccc3s2)c(O)c1 ?
Data returned: inactive

Data request: Per the assay record, what outcome was assigned to Cc1ccc2nc(-c3ccc(N(C)C)c(Br)c3)cn2c1 ?
Data returned: inactive

Data request: Per the assay record, what outcome was assigned to CN[C@@H]1C(OC2[C@H](O[C@H]3[C@H](O)[C@@H](O)[C@H](N=C(N)N)[C@@H](O)[C@@H]3N=C(N)N)OC(C)[C@]2(O)CO)OC(CO)C(O)C1O (stereo not given in full) ?
Data returned: inactive

Data request: Per the assay record, what outcome was assigned to O=C1NC(=O)/C(=C\c2ccco2)S1 ?
Data returned: inactive

From: PubChem BioAssay (NCI)
